FYI, the data here is from paper PMC9482650.

target: SCRIB_3, Q14160
Sequence (Q14160 999-1103): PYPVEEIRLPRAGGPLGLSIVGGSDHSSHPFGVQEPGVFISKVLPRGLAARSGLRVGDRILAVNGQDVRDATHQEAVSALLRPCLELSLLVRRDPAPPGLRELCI
test.summary: holdup assay
Design: key: below the threshold = too weak to quantify, mostly under pKd 3.1 to 4
measurement.context: plain residues with an end cap or a label only (N-terminal biotin on a linker: ado-ado)
measurement.kind: pKd
Lab note: jot the number down without any unit.

// worked examples, pKd included
{"columns": ["binder", "pKd"],
 "data": [
  ["WAKEKQHTRL [SLC17A1, Q14916]", 4.11],
  ["IGHEDLETAV [DGKI, O75912]", 4.91],
  ["ADEMICITTL [CACNA1D, Q01668]", 4.88],
  ["VISSDDLTEL [CAPN6, Q9Y6Q1]", 3.86]
]}

With those in mind, consider the next binder.
Task: So what's the measured pKd for this one? NKSEPFLTWL [WWTR1, Q9GZV5]
Result: 5.14
